Tested on: SW-620 colon
assay-summary: NCI tumour cell line growth inhibition, 48 h
Recorded TGI by entry
Report as a plain number; the unit µM is understood.

As a guide, the following entries are already answered.
>>> observed("O=C1CCCC/C1=C(\\Br)I")
10.4
>>> observed("O=C1CSC2=NC3=C(CSC/C3=C\\c3ccc(Cl)cc3)C(c3ccc(Cl)cc3)N12 (stereo unspecified)")
62.3
>>> observed("CC(=O)Nc1c(Br)cc2c(c1Br)Cc1cc(Br)ccc1-2")
15.6

Ask: Name the reported TGI value associated with the compound `Cc1ccc(NCCN(C)C)c2c(=O)c3cc(O)ccc3oc12`
Result: 17

Ask: Next compound up: CC1(c2ccccc2)CCN(C2CC2)CO1 (stereo unspecified)
Result: 36.2

---

Tested on: SK-MEL-5 melanoma
assay-summary: NCI tumour cell line growth inhibition, 48 h
readout: TGI (µM)
Respond numerically; units are µM and should not be typed.

Answered examples (3):
>>> observed("Cn1c(=O)nc2n(-c3cc(Cl)ccc3Cl)c3ccccc3nc-2c1=O")
4.55
>>> observed("O=C1CSC2=NC3=C(CSC/C3=C\\c3ccc(Cl)cc3)C(c3ccc(Cl)cc3)N12 (centres undefined)")
29.3
>>> observed("C[C@]12CC[C@H]3[C@@H](CCC4=C[C@@H](N5CCCC5)CC[C@@]43C)[C@@H]1C/C(=C\\c1ccncc1)[C@@H]2O")
25.2

Ask: Identify the measured TGI of `O=S(=O)(Nc1ccc(Cl)c(F)c1)c1ccc(-c2cnc(C3CC3)o2)cc1` for SK-MEL-5 melanoma.
Result: 11.1

Ask: Also, `CC12c3c4cccc3Oc3cc(N)cc(c31)Oc1cc(N)cc(c12)O4` please.
Result: 13

Ask: CCc1ccccc1NC(=O)C1=C(C)NC(C)=C(C(=O)Nc2c(CC)cccc2CC)C1c1ccc2c(c1)OCO2 (centres undefined) , same question.
Result: 28.5

Ask: Similarly, `CCCNC1=C(C)C(=O)C2=C(C1=O)[C@H](COC(N)=O)[C@]1(OC)[C@@H]3N[C@@H]3CN21` ?
Result: 2.65

Ask: Can you handle `Cc1ccc(S(=O)(=O)N(/N=C/C=C/c2ccccc2)c2nnc(-c3ccccc3)c(-c3ccccc3)n2)cc1` next?
Result: 35.1

---

System: OVCAR-5 ovarian
assay-summary: NCI tumour cell line growth inhibition, 48 h
Recorded measurements of TGI, one per entry

# annotated cases, reported TGI shown
>>> observed("Cc1n[nH]c(=S)n1/N=C/c1ccc(-c2ccc(Cl)cc2)o1")
"> 100 µM"
>>> observed("Cc1ccc(C2C3Cc4ccccc4C3=NN2c2ccc(S(=O)(=O)NC(=O)NC3CCCCC3)cc2)cc1 (stereo unspecified)")
"55.7 µM"

// below: TGI requested for another compound
Ask: Using the record for `COP(=O)(OC)/C(=C/c1cn(C(C)=O)c2ccccc12)NC(C)=O` , report its TGI.
Result: > 100 µM

---

Test system: T-47D breast
assay-summary: NCI tumour cell line growth inhibition, 48 h
Quick list: GI50 per entry.

Completed entries (count: 3):
>>> observed("CCCC(=O)OCC1OC(n2cnc3c(=S)nc(N)[nH]c32)C(OC(=O)CCC)C1OC(=O)CCC (stereo not given)")
"3.37 µM"
>>> observed("N#Cc1cnc(=O)n(C2CC(O)C(CO)O2)c1 (stereo not given)")
"> 100 µM"
>>> observed("Cc1ccc2cc3c(cc(C)c4ccccc43)c3c2c1CC3")
"> 100 µM"

Ask: So what's the measured GI50 for this one? `CCN(Cc1ccccn1)c1ccc(CO)c(Cl)c1`
Result: 0.927 µM

Ask: # repeat for `COc1ccc(-c2nc3c(-c4ccccc4)nc(-c4ccccc4)cn3c2-c2ccc(OC)cc2)cc1`
Result: > 100 µM

Ask: Continue with `Cc1ccc(-c2nc3nc(-c4ccc(Br)cc4)nc(N4CCCNCC4)c3o2)cc1`
Result: 3.06 µM

Ask: Then CN1C[C@@H](c2ccc(Cl)cc2)[C@]2(NC(=S)N(c3ccc(F)c(Cl)c3)C2=O)[C@@]12C(=O)NC1C=CC(Cl)=C[C@H]12 (stereo not given in full) ?
Result: 2.85 µM

Ask: Also check `CC(=O)Nc1c(Br)cc2c(c1Br)Cc1cc(Br)ccc1-2`
Result: 3.34 µM

Ask: And what about the compound `O=S(=O)(Nc1ccc(Cl)c(F)c1)c1ccc(-c2cnc(C3CC3)o2)cc1` ?
Result: 0.436 µM

Ask: Now give it for `COc1ccc(C2=C(c3cn(C)c4ccccc34)C(=O)OC2)cc1OC` too.
Result: 4.07 µM

---

Some compounds, each annotated with its measured TGI.
System: DLD-1 colon
assay-summary: NCI tumour cell line growth inhibition, 48 h

>>> observed("Cn1c(=O)nc2n(-c3cc(Cl)ccc3Cl)c3ccccc3nc-2c1=O")
"16.6 µM"
>>> observed("COC(=O)C(CCCCCCCC(C(=O)OC)c1nc2n(c1O)C(=N)N=N2)c1nc2n(c1O)C(=N)N=N2 (configuration not stated)")
"> 100 µM"
>>> observed("c1ccc(C2N=NN(c3ccccc3)C2N2CCCCC2)cc1 (configuration not stated)")
"> 100 µM"
>>> observed("OCCCCOC(c1ccccc1)(c1ccccc1)c1ccccc1")
"> 100 µM"
>>> observed("O=C(CC1(O)C(=O)Nc2ccccc21)c1ccc2ccccc2c1 (configuration not stated)")
"> 100 µM"

Ask: Request - read-out TGI | tested on DLD-1 colon | compound COC1(OC)CC2CCCCC2=C(C)N1S(=O)(=O)c1ccccc1 (configuration not stated)
Result: > 100 µM

Ask: Lookup `COc1ccc2c(c1)[n+](=O)c(C(=O)C/C(=N/NC(=O)c1ccccc1O)C(=O)Nc1ccc(Cl)c(C(F)(F)F)c1)c(C)n2[O-]`
Result: > 100 µM

Ask: Param item: `COc1ccc2c(c1)c1c(C)c3cnccc3c(C)c1n2CCCN`
Result: 0.741 µM

Ask: Next: CC1NOC(=O)C1N=Nc1ccccc1Br (configuration not stated)
Result: > 100 µM

Ask: How about this compound: CC(=O)OC(C[C@H](C)[C@@H]1CC[C@]2(C)C3=CCC4C(C)(C)C(=O)CC[C@]4(C)C3CCC12C)C1OC1(C)C (some centres not stated)
Result: > 100 µM

Ask: Check COC(=O)/C(=N\NC(N)=O)C(C(=O)C(=O)Nc1ccccc1C(=O)OC)c1nc2ccc(C(=O)c3ccccc3)cc2[nH]c1=O (configuration not stated) too.
Result: > 100 µM

Ask: Try this compound too: `CCOC(=O)/C(=C/c1ccc(C(F)(F)F)cc1)N(CC)CC`
Result: > 100 µM

---

Test system: SK-MEL-2 melanoma
assay-summary: NCI tumour cell line growth inhibition, 48 h
Measured TGI by item
Report only the number, with the unit µM understood.

Recorded results for 2 compounds are shown here.
>>> observed("COc1ccc(Cc2c(-c3ccc(C)cc3)n[nH]c(=O)c2C2C(=O)N(c3ccccc3)N=C2c2ccccc2)cc1 (stereo not given)")
52.5
>>> observed("N#CC1=C(N)OC2=C(CCCc3ccccc32)C1c1ccc([N+](=O)[O-])cc1 (stereo not given)")
40.8

In the following, a different compound is considered.
Ask: Query for SK-MEL-2 melanoma: what TGI does the record show for `O=C(CCN1CCOCC1)c1ccc(Oc2ccc(F)cc2)cc1` ?
Result: 57.1

---

System: SK-MEL-2 melanoma
assay-summary: NCI tumour cell line growth inhibition, 48 h
readout: TGI

Some entries whose results are on file:
>>> observed("[N-]=[N+]=NCC1OC(n2cnc3c(N)ncnc32)C2OC12 (stereo unspecified)")
"> 100 µM"
>>> observed("O=C1C(Cl)C(c2cc(Br)ccc2O)N1n1cnc2ccccc2c1=O (stereo unspecified)")
"> 100 µM"
>>> observed("O=C(c1cccc(F)c1F)N1CCc2c([nH]c3ccccc23)C1c1ccc2c(c1)OCO2 (stereo unspecified)")
"16.5 µM"
>>> observed("C[N+]1([O-])CCC(O)(C2CC2)CC1 (stereo unspecified)")
"> 100 µM"

Ask: Please give the measured TGI for this compound: CCOC(=O)C1(C)CCCc2sc(N)c(C#N)c21 (stereo unspecified)
Result: > 100 µM

Ask: Another: `COc1ccc(OC)c(/C=C/C(=O)N/N=C/c2ccccc2)c1`
Result: 9.32 µM

---

System: RPMI-8226 leukemia
assay-summary: NCI tumour cell line growth inhibition, 48 h
readout: GI50

Example entries and their recorded answers appear below.
>>> observed("COC(=O)[C@@]1(C)CCC[C@]2(C)[C@H]3Cc4occc4[C@H](C)[C@@H]3CC[C@@]12O")
"17.9 µM"
>>> observed("COC(=O)C1=C(C(=O)OC)SC(=C(Cl)C(=S)Oc2ccccc2N)S1")
"17.9 µM"

Ask: Fill in the blank: the reported GI50 of `O=C(Nc1ccc(F)cc1F)c1cc(F)ccc1O` is ____.
Result: 1.4 µM
